# Target: IDH1 wt/IDH1 R132H heterodimer (Homo sapiens (Human), UniProt O75874, R132H)
# Sequence (O75874 whole entry R132H): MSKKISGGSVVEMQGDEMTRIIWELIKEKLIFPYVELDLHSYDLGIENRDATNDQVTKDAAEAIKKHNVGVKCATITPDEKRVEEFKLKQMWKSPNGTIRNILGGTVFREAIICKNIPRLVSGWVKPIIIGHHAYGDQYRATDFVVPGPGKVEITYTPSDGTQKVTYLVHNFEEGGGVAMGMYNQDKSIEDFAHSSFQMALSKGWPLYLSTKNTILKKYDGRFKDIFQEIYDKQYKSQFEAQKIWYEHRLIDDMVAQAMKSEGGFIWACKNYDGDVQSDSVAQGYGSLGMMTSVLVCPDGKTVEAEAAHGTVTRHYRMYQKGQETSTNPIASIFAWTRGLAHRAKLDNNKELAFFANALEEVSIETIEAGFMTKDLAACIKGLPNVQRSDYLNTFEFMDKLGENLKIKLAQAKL
# Sequence (O75874 whole entry, stated change not applied): as the sequence (O75874 whole entry R132H) above, with H132R counted along it
# Measurement notes: In vitro assay for IDH1m R132H inhibitors, IDH1 wt/IDH1 R132H heterodimer, NADPH depletion (diaphorase/resazurin)
# Assay type: biochemical
# Condition set: IDH1 wt/IDH1 R132H heterodimer, 300 μM NADP (saturated); read-out: IDH1 wt/R132H NADPH/NADP IC50 saturated
pIC50: −log10 of the molar value.
Quantity name: pIC50

INSERT INTO results (molecule, target, observed_measurement) VALUES
  ('FC1(F)CC[C@H](Nc2nc(N[C@H]3CCC(F)(F)C3)nc(-c3cncc(C(F)(F)F)n3)n2)C1 [Compound 406]', 'IDH1 wt/IDH1 R132H heterodimer (Homo sapiens (Human), UniProt O75874, R132H)', '> 7.30'),
  ('FC1(F)CC(Nc2nc(Nc3ccnc(C(F)(F)F)c3)nc(-c3cncc(C(F)(F)F)n3)n2)C1 [Compound 390]', 'IDH1 wt/IDH1 R132H heterodimer (Homo sapiens (Human), UniProt O75874, R132H)', '7.00 to 7.30'),
  ('CC(F)(F)c1cc(Nc2nc(N[C@H]3CCC(F)(F)C3)nc(-c3cccc(C(F)(F)F)n3)n2)ccn1 [Compound 360]', 'IDH1 wt/IDH1 R132H heterodimer (Homo sapiens (Human), UniProt O75874, R132H)', '> 7.30');

Each recorded value in this set is attributed to patent US10028961B2.
